Target: T1, HLA-A*03:01 (human)
T1 construct: recombinant MHC class I molecule incubated with the synthetic peptide (REVEAL, ProImmune)
Assay: REVEAL MHC-peptide binding assay, recombinant HLA
The following binders are shown together with reported In Vitro Score values.

binder	In Vitro Score
WVHRGRKKL (synthetic 9-mer variant; the entry already carries the change)	3.4 % of positive control peptide
FWVKRGLKK (synthetic 9-mer variant; the entry already carries the change)	2.7 % of positive control peptide
WVKRGRKKS (synthetic 9-mer variant; the entry already carries the change)	0.9 % of positive control peptide

Q: For the binder FIIFWVKRG (synthetic 9-mer of the CD28-4-1BB junction; mutation: none) , what In Vitro Score is on record?
Ans: 1.4 % of positive control peptide

Q: For the binder WVKRGLKKL (synthetic 9-mer variant; the entry already carries the change) , what In Vitro Score is on record?
Ans: 10 % of positive control peptide

Q: For the binder FWVKRGRKK (synthetic 9-mer of the CD28-4-1BB junction; mutation: none) , what In Vitro Score is on record?
Ans: 2.2 % of positive control peptide

Q: For the binder VAFIIFWVH (synthetic 9-mer variant; the entry already carries the change) , what In Vitro Score is on record?
Ans: 0.3 % of positive control peptide

Q: For the binder WVQRGAKKL (synthetic 9-mer variant; the entry already carries the changes) , what In Vitro Score is on record?
Ans: 2 % of positive control peptide

The values you see were collected from patent US20200297760A1.
